Where these numbers come from: paper PMC7758017

# assayMethodText: in vivo
# cond: male, Wistar, rat
metric: Kp at 15 min
One number for each entry.

Give a short answer stating reported Kp at 15 min for "CCN(C)C(=O)Oc1cccc([C@H](C)N(C)C)c1" .
1.48
